These entries and their values trace back to patent US6342492B1.

- Test: Stability in pH 4.0 buffer
- Type: physicochemical
Assay endpoint: half-life (h)
Reply with just the number (in h).

-- ask Answer with reported half-life of `C=C1CN(S(=O)(=O)c2ccc(C)cc2)CCCN(Cc2ccccc2)CCCN(S(=O)(=O)c2ccc(C)cc2)C1`
-- reply 139

###

- System: peripheral blood lymphocytes
- Test: Cytotoxicity in PBL/HIV-1 Wejo infection assay
- Format: cell-based
- Assay context: Lymphocyte, Batch 1, A
Assay endpoint: IC50

-- ask Report value only: IC50, peripheral blood lymphocytes, `C=C1CN(S(=O)(=O)c2ccc(C)cc2)CCCN(Cc2ccccc2)CCCN(S(=O)(=O)c2ccc(C)cc2)C1`
-- reply > 100 µM

###

- Tested on: HIV-1 Ba-L
- Test: Mo-MO/HIV-1 Ba-L infection
- Format: cell-based
- Assay context: Human immunodeficiency virus 1, BAL; fresh
Assay endpoint: EC50 (nM)
Reply with just the number (in nM).

-- ask Report value only: EC50, HIV-1 Ba-L, `C=C1CN(S(=O)(=O)c2ccc(C)cc2)CCCN(Cc2ccccc2)CCCN(S(=O)(=O)c2ccc(C)cc2)C1`
-- reply 1500

###

- System: HIV strain MD48
- Test: MAGI assay on HeLa-MAGIC cells (plaque inhibition)
- Type: cell-based
- Assay context: Human immunodeficiency virus 1; MAGI assay on HeLa-MAGIC cells (plaque inhibition); read-out: ED50 MD48/HeLa
Assay endpoint: pEC50
In simple prose, pEC50 is minus the logarithm base ten of a concentration in moles per litre.

C=C1CN(S(=O)(=O)c2ccc(C)cc2)CCC[N+]([O-])(Cc2ccccc2)CCCN(S(=O)(=O)c2ccc(C)cc2)C1; 5.46

-- ask Answer with reported pEC50 of `C=C1CN(S(=O)(=O)c2ccccc2)CCCN(Cc2ccccc2)CCCN(S(=O)(=O)c2ccccc2)C1`
-- reply 5.82

###

- Test: Inhibition of cell proliferation (cytotoxicity) in herpesvirus screening
- Format: cell-based, human
- Assay context: human, human foreskin fibroblast cells, inhibit cell proliferation by 50%; VZV screen; read-out: Varicella Zoster Virus CC50
Reported CC50 values for a set of compounds

C=C1CN(S(=O)(=O)c2ccc(C)cc2)CCCN(Cc2ccccc2)CCCN(S(=O)(=O)c2ccc(C)cc2)C1 [Compound 1]; 89 µM
C=C1CN(S(=O)(=O)c2ccc(C)cc2)CCCN(C(=O)OCC)CCCN(S(=O)(=O)c2ccc(C)cc2)C1 [Compound 213]; > 180 µM
C=C1CN(S(=O)(=O)c2ccccc2)CCCN(Cc2ccccc2)CCCN(S(=O)(=O)c2ccccc2)C1 [Compound 211]; > 170 µM

Here's the next entry for you.
-- ask Answer with reported CC50 of C=C1CN(S(=O)(=O)c2ccc(C)cc2)CCC[N+]([O-])(Cc2ccccc2)CCCN(S(=O)(=O)c2ccc(C)cc2)C1 [Compound 43]
-- reply > 170 µM

###

- Test: in vitro
- Assay type: in vitro ADME
- Assay context: human, plasma
Assay endpoint: half-life (h)
Reply with just the number (in h).

-- ask Answer with reported half-life of C=C1CN(S(=O)(=O)c2ccc(C)cc2)CCCN(Cc2ccccc2)CCCN(S(=O)(=O)c2ccc(C)cc2)C1 [Compound 1]
-- reply 126

###

- Test: Inhibition of cell proliferation (cytotoxicity) in herpesvirus screening
- Type: cell-based, human
- Assay context: human, human foreskin fibroblast cells, with anti-EBV screen; read-out: CC50
Assay endpoint: CC50

-- ask Answer with reported CC50 of C=C1CN(S(=O)(=O)c2ccc(C)cc2)CCCN(C(=O)OCC)CCCN(S(=O)(=O)c2ccc(C)cc2)C1 [Compound 213]
-- reply > 180 µM

###

- Test: in vitro
- Assay type: in vitro ADME
- Assay context: rat, plasma
Assay endpoint: half-life

-- ask Answer with reported half-life of `C=C1CN(S(=O)(=O)c2ccc(C)cc2)CCCN(Cc2ccccc2)CCCN(S(=O)(=O)c2ccc(C)cc2)C1`
-- reply > 200 h

###

- Test system: HIV strain 2h, a primary pediatric clinical isolate
- Test: Protein (p24) assay in PBMC cells with 2h
- Format: cell-based
- Assay context: Protein (p24) assay in PBMC cells; read-out: ED50 2h/PBMC
Assay endpoint: EC50 (nM)
Reply with just the number (in nM).

C=C1CN(S(=O)(=O)c2ccc(C)cc2)CCCN(Cc2ccccc2)CCCN(S(=O)(=O)c2ccc(C)cc2)C1.Cl [1 · HCl]; 150

-- ask Answer with reported EC50 of C=CCN(CCCN(CCCN(CC=C)S(=O)(=O)c1ccc(C)cc1)Cc1ccccc1)S(=O)(=O)c1ccc(C)cc1 [Compound 004]
-- reply 500

###

- Tested on: HIV-1 (IIIB, AZT-resistant, AZT-sensitive, A17, WeJo), HIV-2, SIV
- Test: Anti-HIV testing against additional strains (Example 2)
- Format: cell-based
- Assay context: viruses and cell lines listed in Example 2
Assay endpoint: EC50
// unit must come after the numeric part

-- ask Report value only: EC50, HIV-1 (IIIB, AZT-resistant, AZT-sensitive, A17, WeJo), HIV-2, SIV, `C=C1CN(S(=O)(=O)c2ccc(C)cc2)CCCN(Cc2ccccc2)CCCN(S(=O)(=O)c2ccc(C)cc2)C1`
-- reply 2000 nM

###

- Test: Solubility in human plasma
- Format: physicochemical
- Assay context: plasma or biological fluid; human plasma at 37° C.
Assay endpoint: solubility

-- ask Answer with reported solubility of `C=C1CN(S(=O)(=O)c2ccc(C)cc2)CCCN(Cc2ccccc2)CCCN(S(=O)(=O)c2ccc(C)cc2)C1`
-- reply 1 to 2 µg/mL

###

- Test system: Epstein Barr virus (EBV)
- Test: Antiviral screening against Epstein Barr virus
- Type: cell-based
- Assay context: human gammaherpesvirus 4; read-out: anti-EBV activity EC50
Assay endpoint: EC50

-- ask Report value only: EC50, Epstein Barr virus (EBV), `C=C1CN(S(=O)(=O)c2ccc(C)cc2)CCCN(C(=O)OCC)CCCN(S(=O)(=O)c2ccc(C)cc2)C1`
-- reply 6.7 µM

###

- Test: Inhibition of cell proliferation (cytotoxicity) in herpesvirus screening
- Format: cell-based, human
- Assay context: human, human foreskin fibroblast cells, inhibit cell proliferation by 50%; HCMV CPE-inhibition screen; read-out: Human Cytomegalovirus CC50
Reported CC50 values for a set of compounds
Reply with just the number (in µM).

C=C1CN(S(=O)(=O)c2ccc(C)cc2)CCCN(Cc2ccccc2)CCCN(S(=O)(=O)c2ccc(C)cc2)C1; 133

-- ask Answer with reported CC50 of `C=C1CN(S(=O)(=O)c2ccc(C)cc2)CCCN(C(=O)OCC)CCCN(S(=O)(=O)c2ccc(C)cc2)C1`
-- reply 167

###

- Test: Solubility in human plasma
- Assay type: physicochemical
- Assay context: plasma or biological fluid; human plasma at 37° C.; conversion of ug/mL
Assay endpoint: solubility

-- ask Answer with reported solubility of C=C1CN(S(=O)(=O)c2ccc(C)cc2)CCCN(Cc2ccccc2)CCCN(S(=O)(=O)c2ccc(C)cc2)C1 [Compound 1]
-- reply 2 to 3 µM

###

- Test: in vitro
- Format: in vitro ADME
- Assay context: mouse, plasma
Assay endpoint: half-life

-- ask Answer with reported half-life of C=C1CN(S(=O)(=O)c2ccc(C)cc2)CCCN(Cc2ccccc2)CCCN(S(=O)(=O)c2ccc(C)cc2)C1 [Compound 1]
-- reply > 200 h

###

- Test system: human foreskin fibroblast cells
- Test: Inhibition of cell proliferation (cytotoxicity) in herpesvirus screening
- Assay type: cell-based
- Assay context: inhibit cell proliferation by 50%; HCMV CPE-inhibition screen; read-out: Human Cytomegalovirus CC50
Assay endpoint: CC50

-- ask Answer with reported CC50 of C=C1CN(S(=O)(=O)c2ccc(C)cc2)CCCN(Cc2ccccc2)CCCN(S(=O)(=O)c2ccc(C)cc2)C1.Cl [1 · HCl]
-- reply > 160 µM

###

- System: HIV strain 2h, a primary pediatric clinical isolate
- Test: Protein (p24) assay in PBMC cells with 2h
- Type: cell-based
- Assay context: Human immunodeficiency virus 1, PBMC, 2 h, read-out: ED50 2h/PBMC
Assay endpoint: EC50 (nM)
Reply with just the number (in nM).

-- ask Answer with reported EC50 of C=C1CN(S(=O)(=O)c2ccc(C)cc2)CCCN(Cc2ccccc2)CCCN(S(=O)(=O)c2ccc(C)cc2)C1 [Compound 1]
-- reply 150

###

- Tested on: HIV strain MB48
- Test: Reverse transcriptase (RT) assay in MT-2 cells, HIV strain MB48
- Assay type: cell-based
- Assay context: Reverse transcriptase (RT) assay in MT-2 cells; read-out: ED50 MB48/MT-2
Reported EC50 values for a set of compounds
Reply with just the number (in µM).

C=CCN(CCCN(CCCN(CC=C)S(=O)(=O)c1ccc(C)cc1)Cc1ccccc1)S(=O)(=O)c1ccc(C)cc1 [Compound 004]; 2.6

-- ask Answer with reported EC50 of C=C1CN(S(=O)(=O)c2ccc(C)cc2)CCCN(Cc2ccccc2)CCCN(S(=O)(=O)c2ccc(C)cc2)C1.Cl [1 · HCl]
-- reply 0.2
